Attribute: TD50
Experiment: diarrhea-producing effect, oral
Conditions: guinea pig, in vivo, guinea-pigs, observed at 2-5 hrs and next morning, read-out: (A) Diarrhea-producing effect (b) ED50
Write the answer as a number in mg/kg, unit excluded.

CCCC[C@H](C)[C@H](O)/C=C/[C@H]1[C@H](O)CC(=O)[C@@H]1C/C=C\CCCC(=O)O [16(S)-methyl-PGE2]; 0.1
CCCC[C@@H](C)[C@H](O)/C=C/[C@H]1[C@H](O)CC(=O)[C@@H]1C/C=C\CCCC(=O)O [16(R)-methyl-PGE2]; 0.025

## Input Would you kindly share the measured TD50 for COCCCC[C@H](C)[C@H](O)/C=C/[C@H]1[C@H](O)CC(=O)[C@@H]1C/C=C\CCCC(=O)O [compound of formula I] ?
## Output 0.14

###

System: histamine
Assay: antiasthmatic effect, oral: protection against histamine-induced sneezing
Format: in vivo
Conditions: Cavia porcellus, 0.5 h, 30 min before histamine spray, guinea-pigs
Attribute: ED50
Write the answer as a number in mg/kg, unit excluded.

Worked examples follow.
CCCC[C@@H](C)[C@H](O)/C=C/[C@H]1[C@H](O)CC(=O)[C@@H]1C/C=C\CCCC(=O)O [16(R)-methyl-PGE2]; 0.0175
COCCCC[C@H](C)[C@H](O)/C=C/[C@H]1[C@H](O)CC(=O)[C@@H]1C/C=C\CCCC(=O)O; 0.71

Consider the additional compound presented here.
## Input Lab note: need ED50 for CCCC[C@H](C)[C@H](O)/C=C/[C@H]1[C@H](O)CC(=O)[C@@H]1C/C=C\CCCC(=O)O [16(S)-methyl-PGE2] on histamine, anyone have it?
## Output 0.025
